meta.source: paper PMC4411110

# Assay Notes: In vitro BBB penetration assay (BBB Kit RBT-24H)
# Stated Conditions: rat
Property: Papp at 30 min (×10⁻⁶ cm/s)
Kindly answer with a numeric value in ×10⁻⁶ cm/s, unit omitted.

Lookup: # Papp at 30 min lookup, item CCCCCCCCc1ccc(CCC(N)(CO)CO)cc1 [fingolimod]
Found: 56

----------
# Assay Notes: in vitro
# Stated Conditions: rat
Property: Papp at 30 min (×10⁻⁶ cm/s)
Kindly answer with a numeric value in ×10⁻⁶ cm/s, unit omitted.

Lookup: # Papp at 30 min lookup, item CC(C)NCC(O)COc1cccc2ccccc12 (stereo not shown) [Propanolol]
Found: 31.3
